target: Ataxin-2 (Homo sapiens); assay: qHTS for Inhibitors of ATXN expression.; format: functional
Screen size: about 400,000 compounds; about 2,100 (0.53%) were called active. Roughly 14% stayed inconclusive and do not appear here. How the calls were made is not given here. Only a selection was taken, and actives are over-represented in it overall.
Respond using exactly one of the listed classes: active, inactive

Previously resolved entries follow.
Molecule	Category
c1ccc(-c2cn3nc(-c4ccccc4)c(-c4ccccc4)nc3n2)cc1	inactive
N#Cc1cnn2c3c(cnc12)C(=O)N1CCc2ccccc2C1C3 (stereo not given)	inactive
COc1cc(/C=C(\C#N)C(=O)Nc2cc(C(F)(F)F)ccc2Cl)ccc1OCC(=O)Nc1cccc(C(F)(F)F)c1	inactive
NCC12CC3CC(C1)CC(c1ccc(Cl)cc1)(C3)C2	active

Prompt: Each molecule tested received a call. Report the one for CCN1CCc2c(C#N)c(N3CCOCC3)nc(NCCO)c2C1 .
Response: inactive

Prompt: Each molecule tested received a call. Report the one for Cc1cc(-c2ccccc2)nc2oc(C(=O)NN)c(N)c12 .
Response: inactive

Prompt: Each molecule tested received a call. Report the one for c1ccc(-c2cn3nc4c(nc3n2)CCCC4)cc1 .
Response: inactive

Prompt: Each molecule tested received a call. Report the one for O=C(Nc1ccc(C(F)(F)F)cc1)c1cc(S(=O)(=O)NC2CCCCCC2)ccc1F .
Response: active

Prompt: Each molecule tested received a call. Report the one for CCC(=O)NC(=S)Nc1ccc(S(=O)(=O)NC2CCCCC2)cc1 .
Response: inactive

Prompt: Each molecule tested received a call. Report the one for CCOCCCn1c(=N)c(C(=O)NCCN2CCOCC2)cc2c(=O)n3cccc(C)c3nc21 .
Response: inactive
